Let's look at some compounds and their measured pIC50.
biological target: BTK, recombinant human catalytic domain (aa 393-659) (Homo sapiens (Human), UniProt Q06187); test: In vitro BTK kinase activity measured by time-resolved fluorescence resonance energy transfer (trFRET); format: biochemical; details: trFRET, 0.001 mM ATP, biotin-TYR1 peptide substrate; read-out: Btk IC50
Sequence (Q06187 393-659): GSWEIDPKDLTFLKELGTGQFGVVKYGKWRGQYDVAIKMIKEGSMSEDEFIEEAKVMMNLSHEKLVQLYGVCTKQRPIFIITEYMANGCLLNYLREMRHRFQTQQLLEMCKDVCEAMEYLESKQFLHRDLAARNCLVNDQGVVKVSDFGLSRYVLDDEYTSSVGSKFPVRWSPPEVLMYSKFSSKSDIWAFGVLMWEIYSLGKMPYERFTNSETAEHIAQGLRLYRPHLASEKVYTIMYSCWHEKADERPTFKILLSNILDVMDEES
pIC50: −log10 of the molar value.

| Compound | pIC50 |
| --- | --- |
| CC(=O)c1ccc(-c2ccc(C(N)=O)c3[nH]c(-c4ccc(C)cc4)cc23)s1 [A.8.5] | 6.00 to 7.00 |

Task item: Entry NC(=O)c1ccc(-c2ccccc2N)c2cc[nH]c12 [A.5.1] needs its pIC50 filled in; supply it.
Reply: 5.00 to 6.00

Task item: Entry C=CC(=O)Nc1cccc(-c2ccc(C(N)=O)c3[nH]c(-c4cccc(NC(C)=O)c4)cc23)c1C [A.1.15] needs its pIC50 filled in; supply it.
Reply: > 7.00

Task item: Entry C=CC(=O)N1CC(N(C)c2ccc(C(N)=O)c3[nH]ccc23)C1 [Example 24] needs its pIC50 filled in; supply it.
Reply: > 7.00

Task item: Entry Cc1oncc1C(=O)Nc1cccc(-c2ccc(C(N)=O)c3[nH]ccc23)c1 [E.2.1] needs its pIC50 filled in; supply it.
Reply: 5.00 to 6.00

###

target: BTK, recombinant human catalytic domain (aa 393-659) (Homo sapiens (Human)); experiment: In vitro BTK kinase activity measured by time-resolved fluorescence resonance energy transfer (trFRET); format: biochemical; conditions: read-out: Btk IC50
Measured Metric: IC50

| Molecule | IC50 |
| --- | --- |
| Cc1c(NC2COC2)cccc1-c1ccc(C(N)=O)c2[nH]ccc12 [O.1.2] | 1 to 10 µM |
| C=CC(=O)N1CC(N(C)c2ccc(C(N)=O)c3[nH]c(-c4ccc(CN5CCOCC5)cn4)cc23)C1 [E.9.13] | < 0.1 µM |
| CC(=O)N1CC=C(c2cc3c(-c4cccc(-n5cnc6ccccc6c5=O)c4C)ccc(C(N)=O)c3[nH]2)C1 [E.8.1] | < 0.1 µM |

Task item: Entry CCOC(=O)N1CC=C(c2cc3c(-c4cccc(-n5cnc6ccccc6c5=O)c4C)ccc(C(N)=O)c3[nH]2)C1 [E.6.1] needs its IC50 filled in; supply it.
Reply: < 0.1 µM

###

Let's look at some compounds and their measured pIC50.
target: BTK, recombinant human catalytic domain (aa 393-659) (Homo sapiens (Human), UniProt Q06187); assay: In vitro BTK kinase activity measured by time-resolved fluorescence resonance energy transfer (trFRET); assay type: biochemical; details: trFRET, 0.001 mM ATP, biotin-TYR1 peptide substrate; read-out: Btk IC50
pIC50: −log10 of the molar value.

| Chemical Smiles | pIC50 |
| --- | --- |
| Cc1c(NC(=O)/C=C/c2nccs2)cccc1-c1ccc(C(N)=O)c2[nH]ccc12 | 6.00 to 7.00 |

Task item: Entry "Cc1c(N)cccc1-c1cnc(C(N)=O)c2[nH]ccc12" needs its pIC50 filled in; supply it.
Reply: 5.00 to 6.00

Task item: Entry "Cc1c(NC(=O)c2ccc(C(F)F)cc2)cccc1-c1ccc(C(N)=O)c2[nH]c(C3=CCN(S(C)(=O)=O)CC3)cc12" needs its pIC50 filled in; supply it.
Reply: > 7.00

Task item: Entry "NC(=O)c1ccc(-c2ccn[nH]2)c2cc(-c3ccc(F)cc3)[nH]c12" needs its pIC50 filled in; supply it.
Reply: 6.00 to 7.00
